Test: Compound stability in rat liver microsomes
Type: in vitro ADME
Conditions: pH 7.4; rat liver microsomes 0.5 mg protein/mL, compound 5 μM, NADPH 1.0 mM, 37° C.; read-out: Rat T1/2
Method: Human or rat liver microsomes incubations were conducted in duplicate in polypropylene tubes. […] The concentrations of compounds in the incubation mixtures of human or rat liver microsomes were determined by a LC/MS/MS method. The ranges of the linearity in the concentration range were determined for each tested compounds. […]
Label TRUE when half-life at 5 μM is at or above 30 min; otherwise label FALSE.

Examples with answers:
CC(O)Cn1cc(Nc2nccc(NC3CC4CN(C(=O)NC5CC5)CC4C3)n2)cn1 (stereo not shown) [Ex. 42] : TRUE
CC(C)(O)Cn1cc(Nc2ncc(Cl)c(NC3CC4CN(S(C)(=O)=O)CC4C3)n2)cn1 (stereo not shown) [Ex. 39] : TRUE
CC(=O)N1CCC2(CCC(Nc3nc(Nc4cnn(C5CCNCC5)c4)ncc3Cl)CC2)CC1 [Ex. 33] : TRUE
Cn1cc(Nc2ncc(Cl)c(NC3CC4CN(S(=O)(=O)NC5CC5)CC4C3)n2)cn1 (stereo not shown) [Ex. 34] : FALSE
Cn1cc(Nc2ncc(Cl)c(NC3CCC4(CC3)CCN(C(=O)C3CC3)CC4)n2)cn1 [Ex. 22] : FALSE

Entry CC(O)Cn1cc(Nc2ncc(Cl)c(NC3CC4CN(C(=O)NC5CC5)CC4C3)n2)cn1 (stereo not shown) [Ex. 41] : is its half-life at 5 μM no less than 30 min?
TRUE

Entry CC(C)(O)Cn1cc(Nc2ncc(Cl)c(NC3CCC4(CC3)CCN(S(C)(=O)=O)CC4)n2)cn1 [Ex. 37] : is its half-life at 5 μM no less than 30 min?
TRUE

Entry Cn1cc(Nc2ncc(Cl)c(NC3CC4CN(C(=O)C5CC5)CC4C3)n2)cn1 (stereo not shown) [Ex. 14] : is its half-life at 5 μM no less than 30 min?
FALSE

---

Each record here notes measured CLint scaled at 5 μM.
Experiment: Compound stability in human liver microsomes
Type: in vitro ADME
Details: pH 7.4; human liver microsomes; in vivo CLint extrapolated
Method: Human or rat liver microsomes incubations were conducted in duplicate in polypropylene tubes. […] The concentrations of compounds in the incubation mixtures of human or rat liver microsomes were determined by a LC/MS/MS method. The ranges of the linearity in the concentration range were determined for each tested compounds. […]
The answer is to be given in mL/min/kg; state only the numeric part.

CC(C)(O)Cn1cc(Nc2ncc(Cl)c(NC3CCC4(CC3)CCN(S(C)(=O)=O)CC4)n2)cn1 : 32
CC(O)Cn1cc(Nc2ncc(Cl)c(NC3CC4CN(C(=O)NC5CC5)CC4C3)n2)cn1 (centres unmarked) : 23.7
Cn1cc(Nc2ncc(Cl)c(NC3CC4CN(c5ccc(C#N)nn5)CC4C3)n2)cn1 (centres unmarked) : 69.8
Cn1cc(Nc2ncc(Cl)c(NC3CC4CN(C(=O)Nc5ccccc5)CC4C3)n2)cn1 (centres unmarked) : 72

Entry under review: `Cn1cc(Nc2ncc(Cl)c(NC3CCC4(CC3)CCN(C(=O)C3CC3)CC4)n2)cn1` . Reported CLint scaled at 5 μM?
26.5

Entry under review: Cn1cc(Nc2ncc(Cl)c(NC3CC4CN(C(=O)C5CC5)CC4C3)n2)cn1 (centres unmarked) . Reported CLint scaled at 5 μM?
39.4

Entry under review: CC(=O)N1CC2CC(Nc3nc(Nc4cnn(CC(C)(C)O)c4)ncc3Cl)CC2C1 (centres unmarked) . Reported CLint scaled at 5 μM?
11.7

Entry under review: `CC(=O)N1CCC2(CCC(Nc3nc(Nc4cnn(C5CCNCC5)c4)ncc3Cl)CC2)CC1` . Reported CLint scaled at 5 μM?
6.32

Entry under review: CCNC(=O)N1CC2CC(Nc3nc(Nc4cnn(C)c4)ncc3Cl)CC2C1 (centres unmarked) . Reported CLint scaled at 5 μM?
12

Entry under review: N#CCC(=O)N1CC2CC(Nc3nc(Nc4cnn(C5CCCNC5)c4)ncc3Cl)CC2C1 (centres unmarked) . Reported CLint scaled at 5 μM?
3.13

Entry under review: Cn1cc(Nc2ncc(Cl)c(NC3CC4CN(S(=O)(=O)NC5CC5)CC4C3)n2)cn1 (centres unmarked) . Reported CLint scaled at 5 μM?
48.6

Entry under review: CC(O)Cn1cc(Nc2nccc(NC3CC4CN(C(=O)NC5CC5)CC4C3)n2)cn1 (centres unmarked) . Reported CLint scaled at 5 μM?
11.3

Entry under review: CC(C)(O)Cn1cc(Nc2ncc(Cl)c(NC3CC4CN(C(=O)CC#N)CC4C3)n2)cn1 (centres unmarked) . Reported CLint scaled at 5 μM?
16.4

Entry under review: N#CCC(=O)N1CC2CC(Nc3nc(Nc4cnn(C5CCNCC5)c4)ncc3Cl)CC2C1 (centres unmarked) . Reported CLint scaled at 5 μM?
1.66

Entry under review: Cn1cc(Nc2ncc(Cl)c(NC3CC4CN(C(=O)NC5CC5)CC4C3)n2)cn1 (centres unmarked) . Reported CLint scaled at 5 μM?
9.78

Entry under review: CC(=O)N1CC2CC(Nc3nc(Nc4cnn(C5CCNCC5)c4)ncc3Cl)CC2C1 (centres unmarked) . Reported CLint scaled at 5 μM?
2.63

Entry under review: CC(O)Cn1cc(Nc2ncc(Cl)c(NC3CC4CN(S(C)(=O)=O)CC4C3)n2)cn1 (centres unmarked) . Reported CLint scaled at 5 μM?
25.9

Entry under review: CC(=O)N1CC2CC(Nc3nc(Nc4cnn(C5CCCNC5)c4)ncc3Cl)CC2C1 (centres unmarked) . Reported CLint scaled at 5 μM?
1.83

Entry under review: CC(C)(O)Cn1cc(Nc2ncc(Cl)c(NC3CC4CN(S(C)(=O)=O)CC4C3)n2)cn1 (centres unmarked) . Reported CLint scaled at 5 μM?
35

Entry under review: Cn1cc(Nc2ncc(Cl)c(NC3CC4CN(CC(C)(C)O)CC4C3)n2)cn1 (centres unmarked) . Reported CLint scaled at 5 μM?
8.27

---

target: JAK1 (h) (Homo sapiens (Human))
Sequence (P23458 whole entry): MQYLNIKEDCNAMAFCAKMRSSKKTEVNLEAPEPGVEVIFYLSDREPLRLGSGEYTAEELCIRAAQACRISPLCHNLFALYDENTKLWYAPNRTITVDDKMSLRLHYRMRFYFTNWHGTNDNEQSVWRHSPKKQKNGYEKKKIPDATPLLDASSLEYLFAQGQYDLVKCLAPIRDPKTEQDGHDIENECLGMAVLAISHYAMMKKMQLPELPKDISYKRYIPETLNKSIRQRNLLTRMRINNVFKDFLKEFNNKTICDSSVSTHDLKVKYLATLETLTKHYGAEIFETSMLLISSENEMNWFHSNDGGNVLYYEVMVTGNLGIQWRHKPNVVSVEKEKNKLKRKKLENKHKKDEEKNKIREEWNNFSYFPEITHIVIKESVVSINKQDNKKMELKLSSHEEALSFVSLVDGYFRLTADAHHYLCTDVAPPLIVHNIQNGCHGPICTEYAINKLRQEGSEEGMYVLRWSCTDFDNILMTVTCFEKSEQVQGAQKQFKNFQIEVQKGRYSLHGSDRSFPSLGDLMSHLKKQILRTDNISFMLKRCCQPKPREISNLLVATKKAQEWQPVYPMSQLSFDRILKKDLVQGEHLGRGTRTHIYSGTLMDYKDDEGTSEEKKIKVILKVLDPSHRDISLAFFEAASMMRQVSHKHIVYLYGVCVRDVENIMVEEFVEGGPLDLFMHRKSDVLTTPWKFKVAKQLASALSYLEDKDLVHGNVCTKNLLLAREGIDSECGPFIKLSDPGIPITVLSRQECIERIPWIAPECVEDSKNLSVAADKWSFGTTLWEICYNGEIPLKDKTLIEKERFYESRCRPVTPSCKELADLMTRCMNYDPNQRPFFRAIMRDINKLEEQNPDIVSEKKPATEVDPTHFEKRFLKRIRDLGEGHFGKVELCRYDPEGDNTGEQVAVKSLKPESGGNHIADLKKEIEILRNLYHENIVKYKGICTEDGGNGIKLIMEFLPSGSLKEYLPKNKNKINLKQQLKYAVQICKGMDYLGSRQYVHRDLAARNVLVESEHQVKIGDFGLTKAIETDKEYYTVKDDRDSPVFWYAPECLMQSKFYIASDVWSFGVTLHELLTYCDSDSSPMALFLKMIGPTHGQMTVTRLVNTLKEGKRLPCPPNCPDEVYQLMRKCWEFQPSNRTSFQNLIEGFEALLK
Each record here notes measured pIC50.
Units for pIC50: none; it is -log10 of a concentration expressed in mol/L.

Study these solved cases before continuing.
CCNS(=O)(=O)N1CC2CC(Nc3nc(Nc4cnn(C)c4)ncc3Cl)CC2C1 (stereo not drawn) : 8.70
Cn1cc(Nc2ncc(Cl)c(NC3CC4CN(C(=O)CC5CC5)CC4C3)n2)cn1 (stereo not drawn) : 7.92

Hi! What's the reported pIC50 for `CC(C)(O)Cn1cc(Nc2ncc(Cl)c(NC3CCC4(CC3)CCN(S(C)(=O)=O)CC4)n2)cn1` on JAK1 (h) (Homo sapiens (Human))?
8.70

Hi! What's the reported pIC50 for N#CCC(=O)N1CC2CC(Nc3nc(Nc4cnn(-c5ccccn5)c4)ncc3Cl)CC2C1 (stereo not drawn) on JAK1 (h) (Homo sapiens (Human))?
9.22

Hi! What's the reported pIC50 for CC(C)(O)Cn1cc(Nc2ncc(Cl)c(NC3CC4CN(S(C)(=O)=O)CC4C3)n2)cn1 (stereo not drawn) on JAK1 (h) (Homo sapiens (Human))?
8.70

---

Test system Aurora-A (h) (Homo sapiens (Human), UniProt O14965), IC50 listed for each of the compounds.
The answer is to be given in nM; state only the numeric part.

Study these solved cases before continuing.
COc1ccc(-n2cc(Nc3ncc(Cl)c(NC4CC5CN(C(=O)CC#N)CC5C4)n3)cn2)cn1 (stereo not shown) : 4
CC(C)(O)Cn1cc(Nc2ncc(Cl)c(NC3CCC4(CC3)CCN(S(C)(=O)=O)CC4)n2)cn1 : 71
CC(O)Cn1cc(Nc2ncc(Cl)c(NC3CC4CN(S(=O)(=O)NC5CC5)CC4C3)n2)cn1 (stereo not shown) : 7
CCNS(=O)(=O)N1CC2CC(Nc3nc(Nc4cnn(CC(C)O)c4)ncc3Cl)CC2C1 (stereo not shown) : 5
CC(O)Cn1cc(Nc2ncc(Cl)c(NC3CC4CN(S(=O)(=O)C5CC5)CC4C3)n2)cn1 (stereo not shown) : 5

Hi! What's the reported IC50 for CCNC(=O)N1CC2CC(Nc3nc(Nc4cnn(C)c4)ncc3Cl)CC2C1 (stereo not shown) on Aurora-A (h) (Homo sapiens (Human), UniProt O14965)?
11

Hi! What's the reported IC50 for CCOC(=O)N1CC2CC(Nc3nc(Nc4cnn(C)c4)ncc3Cl)CC2C1 (stereo not shown) on Aurora-A (h) (Homo sapiens (Human), UniProt O14965)?
10

Hi! What's the reported IC50 for CC(C)(O)Cn1cc(Nc2ncc(Cl)c(NC3CC4CN(S(=O)(=O)NC5CC5)CC4C3)n2)cn1 (stereo not shown) on Aurora-A (h) (Homo sapiens (Human), UniProt O14965)?
9

Hi! What's the reported IC50 for O=C(NC1CC1)N1CC2CC(Nc3nc(Nc4cnn(C5CCNC5)c4)ncc3Cl)CC2C1 (stereo not shown) on Aurora-A (h) (Homo sapiens (Human), UniProt O14965)?
12

Hi! What's the reported IC50 for CCNS(=O)(=O)N1CC2CC(Nc3nc(Nc4cnn(C)c4)ncc3Cl)CC2C1 (stereo not shown) on Aurora-A (h) (Homo sapiens (Human), UniProt O14965)?
3

Hi! What's the reported IC50 for Cn1cc(Nc2ncc(Cl)c(NC3CC4CN(S(=O)(=O)C(C)(C)C)CC4C3)n2)cn1 (stereo not shown) on Aurora-A (h) (Homo sapiens (Human), UniProt O14965)?
50

Hi! What's the reported IC50 for Cn1cc(Nc2ncc(Cl)c(NC3CC4CN(C(=O)CC5CC5)CC4C3)n2)cn1 (stereo not shown) on Aurora-A (h) (Homo sapiens (Human), UniProt O14965)?
17

Hi! What's the reported IC50 for CC(C)(O)Cn1cc(Nc2ncc(Cl)c(NC3CC4CN(C(=O)CC#N)CC4C3)n2)cn1 (stereo not shown) on Aurora-A (h) (Homo sapiens (Human), UniProt O14965)?
28
